Molecular target: mevalonate kinase (MevK, LD-MevK) (Leishmania donovani, UniProt A0A3S7X459)
Construct: gene LdCL_310011300; recombinant LD-MevK (pET28a, Ni-NTA purified, ~37 kDa)
Sequence (A0A3S7X459 1-329): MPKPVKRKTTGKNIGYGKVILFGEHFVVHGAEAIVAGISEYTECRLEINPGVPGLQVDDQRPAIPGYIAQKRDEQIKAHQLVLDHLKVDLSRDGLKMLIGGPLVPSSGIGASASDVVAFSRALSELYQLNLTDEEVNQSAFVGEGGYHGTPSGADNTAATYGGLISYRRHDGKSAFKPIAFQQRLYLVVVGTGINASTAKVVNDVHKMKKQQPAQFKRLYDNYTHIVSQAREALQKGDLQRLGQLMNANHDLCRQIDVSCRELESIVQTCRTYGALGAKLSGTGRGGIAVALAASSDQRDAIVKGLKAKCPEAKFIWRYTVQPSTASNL
Assay: ITC (exothermic binding constant); also CD, and coupled PK-LDH assay with purified enzyme ([…] inhibition at […], competitive)
Details: read-out: ITC (exothermic binding constant); also CD, and coupled PK-LDH assay with purifi

smiles_representation: CCCCCCCC(=O)O
measurement_units: µM
Kd: 101

----------
Target: mevalonate kinase (MevK, LD-MevK) (Leishmania donovani, UniProt A0A3S7X459)
Construct: gene LdCL_310011300; recombinant LD-MevK (pET28a, Ni-NTA purified, ~37 kDa)
Assay: ITC (endothermic binding constant); also CD and enzyme kinetics (Km […])
pKd: −log10 of the molar value.
readout_kind: pKd

compound: C[C@@](O)(CCO)CC(=O)O [MEV, 3,5-Dihydroxy-3-methylpentanoic acid]
value_observed: 4.20
